studyTarget: Gamma-secretase
protocolNotes: Modulation of gamma-secretase-mediated cleavage of human APP Swedish and London mutation expressed in HEK293 cells assessed as reduction of total amyloid beta level after 5 hrs by sandwich immunoassay
Assay type: cell-based
experimentalReadout: IC50 (µM)

[P] COC[C@]1(c2ccc(F)cc2)ON=C2/C(=C/c3ccc(-n4cnc(C)c4)c(OC)c3)CCCN21
[Q] COc1cc(/C=C2\CCCN3C2=NOC3(CO)c2ccccc2F)ccc1-n1cnc(C)c1 (single isomer, unassigned)
Which item exceeds the other in IC50, P or Q ? Please respond with the label that marks your chosen entry.
P

---

studyTarget: Gamma-secretase
protocolNotes: Modulation of gamma-secretase-mediated cleavage of human APP Swedish and London mutation expressed in HEK293 cells assessed as inhibition of amyloid beta42 production after 5 hrs by sandwich immunoassay
Format: cell-based
experimentalReadout: IC50 (µM)

Examples with their reported IC50 follow.
compound=COc1cc(/C=C2\CCCN3C2=NO[C@@]3(c2ccc(F)cc2)[C@H](C)O)ccc1-n1cnc(C)c1 measureunit=µM numericresult=0.089
compound=COc1cc(/C=C2\CCCN3C2=NO[C@@]3(c2ccc(F)cc2)[C@@H](C)O)ccc1-n1cnc(C)c1 measureunit=µM numericresult=0.046

[a] COc1cc(/C=C2\CCCN3C2=NOC3(C)c2ccc(F)cc2)ccc1-n1cnc(C)c1 (single isomer, unassigned)
[b] COc1cc(/C=C2\CCCN3C2=NO[C@]3(CO)c2ccc(F)cc2)ccc1-n1cnc(C)c1
Which item exceeds the other in IC50, a or b ? Please respond with the label that marks your chosen entry.
a
(a: 0.058 µM, b: 0.029 µM)

[P] COc1cc(/C=C2\CCCN3C2=NOC3(CO)c2cc(F)cc(F)c2)ccc1-n1cnc(C)c1 (single isomer, unassigned)
[Q] COc1cc(/C=C2\CCCN3C2=NOC3(CO)c2ccccc2F)ccc1-n1cnc(C)c1 (single isomer, unassigned)
Hi there, can you help? I need to know whether P or Q has lower measured IC50. Please respond with the label that marks your chosen entry.
P

[A] CNC[C@]1(c2ccc(F)cc2)ON=C2/C(=C/c3ccc(-n4cnc(C)c4)c(OC)c3)CCCN21
[B] COc1cc(/C=C2\CCCN3C2=NOC3(CO)c2cncc(F)c2)ccc1-n1cnc(C)c1 (single isomer, unassigned)
Hi there, can you help? I need to know whether A or B has lower measured IC50. Please respond with the label that marks your chosen entry.
B

[1] COc1cc(/C=C2\CCCN3C2=NO[C@]3(CN(C)C)c2ccc(F)cc2)ccc1-n1cnc(C)c1
[2] COc1cc(/C=C2\CCCN3C2=NO[C@@]3(CO)c2ccc(F)cc2)ccc1-n1cnc(C)c1
Hi there, can you help? I need to know whether 1 or 2 has lower measured IC50. Please respond with the label that marks your chosen entry.
1

[a] COC[C@]1(c2ccc(F)cc2)ON=C2/C(=C/c3ccc(-n4cnc(C)c4)c(OC)c3)CCCN21
[b] COc1cc(/C=C2\CCCN3C2=NO[C@]3(CN(C)C(C)=O)c2ccc(F)cc2)ccc1-n1cnc(C)c1
[c] COc1cc(/C=C2\CCCN3C2=NOC3(CO)c2cccc(F)c2)ccc1-n1cnc(C)c1 (single isomer, unassigned)
Arrange these 3 compounds in increasing order of IC50. Return the labels ranked in the requested order, please.
c, a, b
(c: 0.026 µM, a: 0.122 µM, b: 0.199 µM)

[a] COc1cc(/C=C2\CCCN3C2=NOC3(CO)c2ccc(F)cn2)ccc1-n1cnc(C)c1 (single isomer, unassigned)
[b] COCCCN1C(/C=C/c2ccc(-n3cnc(C)c3)c(OC)c2)=NOC1(C)c1ccc(F)cc1 (racemic)
Which item exceeds the other in IC50, a or b ? Please respond with the label that marks your chosen entry.
b
(b: 0.187 µM, a: 0.103 µM)

---

studyTarget: Gamma-secretase (Homo sapiens) (UniProt Q96BI3+Q9NZ42+Q8WW43+P49768+Q92542+P49810)
protocolNotes: Modulation of gamma-secretase-mediated cleavage of human APP Swedish and London mutation expressed in HEK293 cells assessed as reduction of total amyloid beta/amyloid beta42 ratio after 5 hrs by sandwich immunoassay
Assay type: cell-based
Recorded Ratio IC50, one value per entry.

Examples with their reported Ratio IC50 follow.
compound="COc1cc(/C=C2\\CCCN3C2=NOC3(CO)c2ccc(C#N)cc2)ccc1-n1cnc(C)c1 (single isomer, unassigned)" result="> 171"
compound="COc1cc(/C=C2\\CCCN3C2=NOC3(CO)c2cncc(F)c2)ccc1-n1cnc(C)c1 (single isomer, unassigned)" result="> 189"
compound=CNC[C@]1(c2ccc(F)cc2)ON=C2/C(=C/c3ccc(-n4cnc(C)c4)c(OC)c3)CCCN21 result="> 105"

From here, focus on the item given below.
Quote Ratio IC50 reported for "COc1cc(/C=C2\CCCN3C2=NO[C@]3(CN(C)C(C)=O)c2ccc(F)cc2)ccc1-n1cnc(C)c1" please.
> 101
